- measurement target: T1, PtSHL Q156A (Populus trichocarpa)
- T1 chain: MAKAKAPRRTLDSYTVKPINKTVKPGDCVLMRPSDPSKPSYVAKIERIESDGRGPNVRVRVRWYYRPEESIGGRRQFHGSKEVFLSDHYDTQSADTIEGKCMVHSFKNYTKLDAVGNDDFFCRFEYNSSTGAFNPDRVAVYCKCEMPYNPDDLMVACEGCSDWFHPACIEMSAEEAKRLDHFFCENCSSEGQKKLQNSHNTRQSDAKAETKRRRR
- experimental protocol: ITC
No end group written: not given here. Me3 = trimethyl-lysine
observable: Kd (µM)
Response body: numeric value in µM, unit text excluded.

QUERY: What measured Kd goes with ARTK(Me3)QTARKSTGGKAY [H3(1-15)K4me3 peptide with an additional C-terminal tyrosine (ITC)] ?
RESULT: 66.1
